FYI, the data here is from the supplement of paper PMC10266784.

B1: library; numbered along this chain (parent)
chain: MAAAAAAAAEQQSSNGPVKKSMREKAVERRSVNKEHNSNFKAGYIPIDEDRLHKTGLRGRKGNLAICVIILLFILAVINLIITLVIWAVIRIGPNGCDSMEFHESGLLRFKQVSDMGVIHPLYKSTVGGRRNENLVITGNNQPIVFQQGTTKLSVENNKTSITSDIGMQFFDPRTQNILFSTDYETHEFHLPSGVKSLNVQKASTERITSNATSDLNIKVDGRAIVRGNEGVFIMGKTIEFHMGGNMELKAENSIILNGSVMVSTTRLPSSSSGDQLGSGDWVRYKLCMCADGTLFKVQVTSQNMGCQISDNPCGNTH

- Variants of: B1
- procedure.details: SGCB cell-surface expression functional score (HA stain, bin4 vs bin1, normalised to synonymous) (log10 ratio); higher = more cell-surface SGCB (functional)
property.name: SGCB cell-surface expression functional score (log10)
Answers are plain numbers.

>>> test_result("E188C")
-1.07

Record SGCB cell-surface expression functional score (log10) per entry; entries follow.
1. G293L
2. I81G
3. K219Y

1: -0.36; 2: 0; 3: -0.13

Dear colleague, could you please provide SGCB cell-surface expression functional score (log10) for the variants listed below?
1. R130T
2. E230D
3. Q169L

-0.51
0.26
-0.69

Documented SGCB cell-surface expression functional score (log10) of Q201S : -0.35
